# tested.system: T1, cynomolgus complement C3b protein (cynomolgus monkey (Macaca fascicularis))
# T1 construct: also called cyno C3b; cynoC3b
# experiment.description: solution equilibrium titration (SET), ECL detection, Fab
pKd: −log10 of the molar value.
measured.quantity: pKd

{"binder": "MOR09373 Fab (Fab, V domains shown, also called Fab 9373) VH: QVQLVQSGAEVKKPGASVKVSCKASGYTFTSYSMHWVRQAPGQGLEWMGLINPYNGNTHYAQKFQGRVTMTRDTSISTAYMELSSLRSEDTAVYYCARMLRFDVWGQGTLVTVSS VL: DIALTQPASVSGSPGQSITISCTGTSSDGGGYNYVSWYQQHPGKAPKLMIYGVSNRPSGVSNRFSGSKSGNTASLTISGLQAEDEADYYCQTYTRYSDSPVFGGGTKLTVLG", "measured.quantity": "pKd", "result.number": 10.11}
{"binder": "MOR09141 Fab (Fab, V domains shown, also called Fab 9141) VH: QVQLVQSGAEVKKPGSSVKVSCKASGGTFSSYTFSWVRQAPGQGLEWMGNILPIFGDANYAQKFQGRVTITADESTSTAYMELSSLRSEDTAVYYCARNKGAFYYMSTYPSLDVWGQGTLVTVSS VL: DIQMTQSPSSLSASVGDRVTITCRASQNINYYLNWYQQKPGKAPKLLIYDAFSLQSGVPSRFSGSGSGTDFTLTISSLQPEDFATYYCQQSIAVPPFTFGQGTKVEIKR", "measured.quantity": "pKd", "result.number": 10.70}
{"binder": "MOR09136 Fab (Fab, V domains shown, also called Fab 9136) VH: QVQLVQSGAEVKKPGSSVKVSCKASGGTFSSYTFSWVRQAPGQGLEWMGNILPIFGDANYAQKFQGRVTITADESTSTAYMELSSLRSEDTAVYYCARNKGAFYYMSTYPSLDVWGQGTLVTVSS VL: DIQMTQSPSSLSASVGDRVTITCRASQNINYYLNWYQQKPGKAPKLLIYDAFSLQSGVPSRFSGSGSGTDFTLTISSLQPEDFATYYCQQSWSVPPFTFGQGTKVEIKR", "measured.quantity": "pKd", "result.number": 10.80}
